# Test Target: Heat shock factor protein 1 (Mus musculus, UniProt P38532)
# Sequence (P38532 whole entry): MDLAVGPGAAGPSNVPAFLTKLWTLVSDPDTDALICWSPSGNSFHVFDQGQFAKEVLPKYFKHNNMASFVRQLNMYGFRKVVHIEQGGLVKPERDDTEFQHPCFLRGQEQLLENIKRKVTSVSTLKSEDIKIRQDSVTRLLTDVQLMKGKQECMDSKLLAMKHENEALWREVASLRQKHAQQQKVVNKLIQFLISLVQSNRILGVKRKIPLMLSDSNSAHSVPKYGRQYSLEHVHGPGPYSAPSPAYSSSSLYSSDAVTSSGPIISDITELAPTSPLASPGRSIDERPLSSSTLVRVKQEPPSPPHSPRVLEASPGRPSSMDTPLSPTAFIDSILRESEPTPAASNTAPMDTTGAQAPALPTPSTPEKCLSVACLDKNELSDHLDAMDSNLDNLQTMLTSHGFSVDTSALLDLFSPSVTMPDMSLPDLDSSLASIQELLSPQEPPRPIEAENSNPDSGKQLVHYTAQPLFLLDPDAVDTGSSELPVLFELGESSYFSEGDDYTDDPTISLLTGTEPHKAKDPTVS
# Test Protocol: decrease of HSF1-responsive luciferase luminescence – cell-based, NIH3T3, dose retest, confirmation (AID 2382);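 also: NIH3T3 fibroblasts with HSF1-driven luciferase reporter stressed by proteasome inhibitor MG132; luminescence from HSF1-driven luciferase expression after 8 hours of MG132 stress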
# Assay type: functional
Active and inactive are the calls of the source.
Quantity Kind: EC50

Recorded EC50, per entry:
COc1cc(NC(=O)c2cc3ccccc3cc2OC)ccc1NC(=O)c1cccs1 ... 14.1 µM (active)
COC(=O)[C@]12OC[C@]34C([C@@H](O)[C@@H]1O)[C@]1(C)CC(=O)C(O)=C(C)[C@@H]1C[C@H]3OC(=O)[C@H](O)[C@@H]24 (some centres not stated) ... 1.01 µM (active)
COc1ccc(Cn2nnnc2C(c2ccccc2Cl)N2CCC(C(N)=O)CC2)cc1 (configuration not stated) ... > 195 µM (not active)
N=C(N)SCc1ccccc1Cl ... 121 µM (active)
CC1Cc2ccccc2N1C(=O)CSc1ncccc1C(=O)O (configuration not stated) ... > 195 µM (not active)

Query block: Which EC50 reading was recorded for the compound CCN1C(NCCc2cccs2)=N[C@@H](c2cccs2)C(C(=O)OC)=C1C ?
Result block: > 195 µM (not active)

Query block: How about CNC(SCc1cc2c(cc1Cl)OCO2)=C1C(=O)N(C)C(=O)N(C)C1=O ?
Result block: > 195 µM (not active)

Query block: How about CC1=C(C(=O)Nc2ccccc2C)C(c2cccs2)NC(S)=N1 (configuration not stated) ?
Result block: > 195 µM (not active)

Query block: How about Cc1sc2ncnc(NCCc3ccc(S(N)(=O)=O)cc3)c2c1C ?
Result block: > 195 µM (not active)

Query block: How about Cc1ccccc1-n1c(=O)cc(N2CCc3ccccc32)[nH]c1=O ?
Result block: > 195 µM (not active)

Query block: How about COc1cc2c(cc1OC)-c1cc(Nc3ccc4c(c3)OCCO4)nc(=O)n1CC2 ?
Result block: 2.04 µM (active)

Query block: How about CCOc1ccccc1NC(=O)CCS(=O)(=O)c1cccs1 ?
Result block: > 195 µM (not active)

----------
# Test Target: FAD-linked sulfhydryl oxidase ALR (Homo sapiens, UniProt P55789)
# Sequence (P55789 whole entry): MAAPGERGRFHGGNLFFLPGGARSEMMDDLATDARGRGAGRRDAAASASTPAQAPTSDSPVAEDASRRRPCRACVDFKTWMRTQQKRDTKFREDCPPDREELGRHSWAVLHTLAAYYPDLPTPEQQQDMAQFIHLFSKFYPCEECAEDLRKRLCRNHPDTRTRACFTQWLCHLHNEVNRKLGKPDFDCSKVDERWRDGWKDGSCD
# Test Protocol: ALR-catalysed DTT oxidation blockers – biochemical, H2O2 detection, luminescence, cherry-pick, dose response (AID 493248)
Active and inactive are the calls of the source.
Quantity Kind: AC50

Recorded AC50, per entry:
CNC(SCc1cc2c(cc1Cl)OCO2)=C1C(=O)N(C)C(=O)N(C)C1=O ... 1560 nM (active)
Cc1c(CCC(=O)O)c(=O)oc2cc3occ(-c4ccc(F)cc4)c3cc12 ... 2680 nM (active)
Cc1nccn1CC(=O)c1ccc(O)c(O)c1 ... 4400 nM (active)
CC(NC(=O)c1ccccc1)C(=O)N/N=C/c1ccc(O)cc1 (stereo not given) ... 2140 nM (active)

Query block: Which AC50 reading was recorded for the molecule Cc1cc(=O)oc2c(N)c(O)ccc12 ?
Result block: 1320 nM (active)

----------
# Test Target: Albumin (Bos taurus, UniProt P02769)
# Sequence (P02769 whole entry): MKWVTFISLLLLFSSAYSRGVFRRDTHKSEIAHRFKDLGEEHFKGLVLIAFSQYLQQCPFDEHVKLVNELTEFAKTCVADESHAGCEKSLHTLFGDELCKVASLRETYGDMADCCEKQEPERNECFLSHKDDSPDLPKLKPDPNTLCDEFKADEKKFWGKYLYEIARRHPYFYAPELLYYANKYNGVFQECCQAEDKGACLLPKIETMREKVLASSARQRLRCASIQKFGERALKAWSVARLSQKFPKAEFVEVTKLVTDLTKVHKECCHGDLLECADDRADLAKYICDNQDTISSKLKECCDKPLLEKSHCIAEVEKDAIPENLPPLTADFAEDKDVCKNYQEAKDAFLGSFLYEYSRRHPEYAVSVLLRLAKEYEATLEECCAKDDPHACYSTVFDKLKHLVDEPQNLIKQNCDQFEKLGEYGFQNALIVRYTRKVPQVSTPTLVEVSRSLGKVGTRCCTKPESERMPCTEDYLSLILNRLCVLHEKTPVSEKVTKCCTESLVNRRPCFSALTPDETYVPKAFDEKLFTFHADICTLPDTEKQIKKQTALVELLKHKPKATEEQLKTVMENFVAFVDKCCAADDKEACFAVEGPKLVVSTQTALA
# Test Protocol: Counterscreen for inhibitors of T-cell receptor (TCR)-CD3 interaction: Fluorescence-based biochemical high throughput dose response assay to identify inhibitors of T-cell receptor (TCR)-CD3 interaction using a TAMRA-labeled BSA probe.
# Format: functional
Active and inactive are the calls of the source.
Quantity Kind: IC50

Recorded IC50, per entry:
O=c1c2ccccc2nc(COc2ccccc2)n1/N=C/c1cc([N+](=O)[O-])ccc1O ... > 94.1 µM (inactive)
O=C(O)c1ccccc1/C=N/NC(=O)c1cc(-c2ccco2)nc2ccccc12 ... > 94.1 µM (inactive)
Cc1cccc(C(=O)NCC(=O)NNC(=O)c2ccccc2O)c1 ... > 94 µM (inactive)

Now for the molecule whose IC50 we want.
Query block: Which IC50 reading was recorded for the molecule O=C1/C(=C/Nc2ccccc2O)c2ccccc2C(=O)N1c1nccs1 ?
Result block: > 94.1 µM (inactive)

----------
# Test Target: UniProtKB Q92731
# Sequence (Q92731 whole entry): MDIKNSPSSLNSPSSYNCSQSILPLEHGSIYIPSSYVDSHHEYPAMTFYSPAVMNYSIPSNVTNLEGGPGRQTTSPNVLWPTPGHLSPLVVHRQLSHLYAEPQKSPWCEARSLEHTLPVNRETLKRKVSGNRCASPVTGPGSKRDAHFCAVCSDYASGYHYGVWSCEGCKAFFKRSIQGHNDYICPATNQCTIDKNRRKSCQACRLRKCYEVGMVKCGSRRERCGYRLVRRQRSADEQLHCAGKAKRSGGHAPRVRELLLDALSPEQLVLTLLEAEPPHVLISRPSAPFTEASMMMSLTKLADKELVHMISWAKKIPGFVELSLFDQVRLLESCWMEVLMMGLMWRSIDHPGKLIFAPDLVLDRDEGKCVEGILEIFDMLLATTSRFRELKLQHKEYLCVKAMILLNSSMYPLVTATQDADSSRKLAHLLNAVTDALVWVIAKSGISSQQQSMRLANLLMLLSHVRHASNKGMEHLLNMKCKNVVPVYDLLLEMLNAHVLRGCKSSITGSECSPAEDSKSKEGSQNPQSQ
# Test Protocol: blockers of SRC-3 recruitment to ERβ – biochemical, ELISA, streptavidin-HRP readout, orthogonal assay, confirmation (AID 1060)
Calls of active or inactive are those of the source.
Measured IC50 by item

CCOC(=O)c1c(NS(=O)(=O)c2ccc(Br)cc2)sc2c1CCC2 ... > 50 µM (not active)
CCOc1cccc2cc(-c3cn4cc(C)ccc4n3)c(=O)oc12 ... > 50 µM (not active)
OCCN1CCN(C(c2cccs2)c2ccc3cccnc3c2O)CC1 (centres undefined) ... 2.82 µM (active)

Now for the compound whose IC50 we want.
Query block: Which IC50 reading was recorded for the compound CN1CCN(c2ccc(NC(=O)c3cccc(OCc4ccccc4)c3)cc2)CC1 ?
Result block: 0.0793 µM (not active)

----------
# Test Target: Cytochrome P450 2C9 (Homo sapiens)
# Sequence (P11712 whole entry): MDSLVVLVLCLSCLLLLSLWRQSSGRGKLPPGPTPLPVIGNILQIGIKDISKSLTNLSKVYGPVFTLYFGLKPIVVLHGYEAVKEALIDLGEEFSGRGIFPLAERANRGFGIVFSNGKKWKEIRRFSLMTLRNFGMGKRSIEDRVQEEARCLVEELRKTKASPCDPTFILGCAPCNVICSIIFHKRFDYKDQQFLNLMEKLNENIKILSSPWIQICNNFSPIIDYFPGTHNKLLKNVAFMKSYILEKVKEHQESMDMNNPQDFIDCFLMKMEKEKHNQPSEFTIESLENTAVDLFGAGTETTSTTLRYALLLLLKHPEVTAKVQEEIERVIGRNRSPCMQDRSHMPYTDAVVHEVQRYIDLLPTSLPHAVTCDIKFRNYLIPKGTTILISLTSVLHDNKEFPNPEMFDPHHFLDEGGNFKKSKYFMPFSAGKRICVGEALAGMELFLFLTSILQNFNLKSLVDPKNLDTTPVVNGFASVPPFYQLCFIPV
Measured AC50 by item

Recorded AC50, per entry:
O=C(COC(=O)c1cnccn1)NCc1ccccc1 ... 12.6 µM (inconclusive)
CC(CCc1ccccc1)NC(=O)C(=O)NCCO (stereo not drawn) ... 0.794 µM (inconclusive)
CNC(=O)CCc1nc(-c2ccc(C(C)(C)C)cc2)no1 ... 0.355 µM (inconclusive)
CC(NC(=O)Cc1ccc(F)cc1)c1ccccc1 (stereo not drawn) ... 10 µM (inconclusive)

Query block: Which AC50 reading was recorded for the molecule C=CCOc1c(Br)cc(CNc2ccc(NC(=O)C(C)C)c(OC)c2)cc1OC ?
Result block: 0.00562 µM (inconclusive)

Query block: How about CCC(=O)Nc1cccc(NC(=O)c2cccc([N+](=O)[O-])c2)c1 ?
Result block: 17.8 µM (inconclusive)

Query block: How about CN1CCN(c2ncc3nc(-c4cc(F)cc(F)c4)c(=O)n(CCC#N)c3n2)CC1 ?
Result block: 31.6 µM (inconclusive)

Query block: How about Cc1ccc(C(=O)N2CCN(c3cc(O)nnc3-c3ccccc3)CC2)cc1 ?
Result block: 31.6 µM (inconclusive)

Query block: How about COc1cccc(Cn2c(=O)c(-c3cccs3)nc3cnc(Nc4cccc(OC)c4)nc32)c1 ?
Result block: 0.794 µM (inconclusive)

----------
# Test Protocol: alpha-synuclein stem-loop luciferase translation blockers – H4 neuroglioma cells, luminescence, confirmation (AID 1988)
# Type: functional, cell-based
Activity calls are given as the source filed them.
Measured EC50 by item

Query block: Which EC50 reading was recorded for the compound CN1CCN(c2ccc([N+](=O)[O-])cc2C(=O)c2ccc(Br)cc2)CC1 ?
Result block: 4.21 µM (active)

Query block: How about Cn1nnnc1N=N/C(=N/Nc1ccccc1)c1ccccc1 ?
Result block: 8.09 µM (active)

Query block: How about Cc1cc(C(=O)OCC(=O)NCc2ccco2)c(C)n1-c1ccc(F)cc1 ?
Result block: 4.93 µM (active)

Query block: How about O=C(COc1ccc(Oc2ccccc2)cc1)NCc1cn2ccccc2n1 ?
Result block: 8.5 µM (active)

Query block: How about COC(=O)COc1ccc(-c2nccc(-c3ccccn3)n2)cc1 ?
Result block: 0.159 µM (active)

Query block: How about N#Cc1ccc(-c2ccc(F)cc2)nc1Oc1ccc(F)cc1 ?
Result block: > 120 µM (not active)

----------
# Test Target: UniProt:Q9HC16
# Sequence (Q9HC16 whole entry): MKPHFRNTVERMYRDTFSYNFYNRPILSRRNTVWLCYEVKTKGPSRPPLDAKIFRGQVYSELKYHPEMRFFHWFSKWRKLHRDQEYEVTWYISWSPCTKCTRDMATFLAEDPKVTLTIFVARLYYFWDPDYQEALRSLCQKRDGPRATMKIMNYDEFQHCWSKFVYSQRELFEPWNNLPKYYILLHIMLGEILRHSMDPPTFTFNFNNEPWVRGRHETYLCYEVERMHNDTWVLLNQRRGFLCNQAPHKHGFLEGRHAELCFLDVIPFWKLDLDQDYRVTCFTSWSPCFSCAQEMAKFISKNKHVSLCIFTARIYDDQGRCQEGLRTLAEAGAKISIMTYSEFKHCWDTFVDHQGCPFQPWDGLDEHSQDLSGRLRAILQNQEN
# Test Protocol: Dose Response confirmation of small molecule APOBEC3G DNA Deaminase Inhibitors via a fluorescence-based single-stranded DNA deaminase assay. [Related pubchem assays (depositor defined):AID493012, AID493028]
# Type: functional
Calls of active or inactive are those of the source.
Quantity Kind: IC50

Cn1c(S)nnc1-c1csc(-c2ccccc2)n1 ... 3.06 µM (active)
Cc1cc(C)n2c(S)nnc2n1 ... 17 µM (active)
Nn1c(Cc2cccc3ccccc23)n[nH]c1=S ... 2.94 µM (active)

Query block: Which IC50 reading was recorded for the compound CCc1nnc(S)n1/N=C/c1ccc(N(CC)CC)cc1 ?
Result block: 6.69 µM (active)

Query block: How about C=C(C)C(=O)Nc1cccc(C2=NOC3(C2)C[C@H](C(N)=O)N(C(=O)COc2ccc(Cl)cc2)C3)c1 (stereo partly specified) ?
Result block: 7.21 µM (active)

Query block: How about Cc1cc(-c2nnc(S)n2/N=C/c2ccccc2[N+](=O)[O-])[nH]n1 ?
Result block: 6.21 µM (active)

----------
# Test Target: Type-1 angiotensin II receptor (Homo sapiens, UniProt P30556)
# Sequence (P30556 whole entry): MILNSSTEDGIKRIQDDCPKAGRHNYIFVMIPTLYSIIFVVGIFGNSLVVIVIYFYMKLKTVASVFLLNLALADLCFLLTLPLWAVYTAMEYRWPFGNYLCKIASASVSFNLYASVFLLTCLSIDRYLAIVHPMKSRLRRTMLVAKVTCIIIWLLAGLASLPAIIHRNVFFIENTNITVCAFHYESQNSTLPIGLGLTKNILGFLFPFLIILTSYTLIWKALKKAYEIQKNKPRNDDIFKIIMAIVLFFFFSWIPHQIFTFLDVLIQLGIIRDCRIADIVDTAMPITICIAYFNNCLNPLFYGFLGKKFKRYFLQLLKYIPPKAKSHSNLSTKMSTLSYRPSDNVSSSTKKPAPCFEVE
# Test Protocol: antagonism of angiotensin II type 1 receptor – cell-based, uHTS hits, selectivity assay for APJ receptor antagonist project, dose response (AID 463214);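 also: antagonist potency against angiotensin II stimulated AT1 response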
# Assay type: functional
The source made the active and inactive calls.
Measured IC50 by item

COc1ccc(S(=O)(=O)NNc2nc(C)cc(C)n2)cc1Br ... > 40 µM (not active)
C=CCN(CC=C)Cc1c(O)ccc2c1oc(=O)c1ccccc12 ... > 40 µM (not active)
Cc1ccc(N=Nc2ccc(O)c3ncccc23)cc1C ... 35.3 µM (not active)

Now for the compound whose IC50 we want.
Query block: Entry CCn1c(Cl)c(C=O)s/c1=N\S(=O)(=O)c1ccccc1 , system Type-1 angiotensin II receptor (Homo sapiens, UniProt P30556): what IC50 was measured?
Result block: 2.24 µM (active)

Origin of the recorded values: ChEMBL document CHEMBL1201862
